Tested on: K562 CRISPRi cells
Assay: Perturb-seq pooled growth measurement (sgRNA counts, growth phenotype γ, relative activity)
Format: cell-based, human
Conditions: sequencing read counts; 10 days of growth (day twelve after transduction)
This listing pairs substances with measured Perturb-seq pooled growth sgRNA counts, d10.
Measure name: Perturb-seq pooled growth sgRNA counts, d10

Substance: RAN_+_131356438.23-P1P2_02: sgRNA targeting RAN, GGCGGCCGCTGCGCTTAGGG, SEQ ID NO: 70 (listed as DNA, chemistry not fully specified)
Obs value: 15358
//
Substance: HSPA9_−_137911079.23-P1P2_07: sgRNA targeting HSPA9, GGAGCTGCGGGATGCGGTGG, SEQ ID NO: 132 (listed as DNA, chemistry not fully specified)
Obs value: 1463
//
Substance: HSPA5_+_128003624.23-P1P2_06: sgRNA targeting HSPA5, GAGCCGAGTAGACGACGGTG, SEQ ID NO: 92 (listed as DNA, chemistry not fully specified)
Obs value: 23714
//
Substance: TUBB_+_30688126.23-P1_00: sgRNA targeting TUBB, GCGGCAGGAAGGTTCTGAGA, SEQ ID NO: 23 (listed as DNA, chemistry not fully specified)
Obs value: 1125
//
Substance: RPS14_+_149829238.23-P1P2_08: sgRNA targeting RPS14, GAGGCCCGGGCTCGACAATC, SEQ ID NO: 50 (listed as DNA, chemistry not fully specified)
Obs value: 17976
//
Substance: DBR1_+_137893744.23-P1P2_01: sgRNA targeting DBR1, GATTGCAGGAGTCTACACCC, SEQ ID NO: 79 (listed as DNA, chemistry not fully specified)
Obs value: 1824
//
Substance: CDC23_−_137548987.23-P1P2_04: sgRNA targeting CDC23, GACAGCCAACGGGACCATGG, SEQ ID NO: 100 (listed as DNA, chemistry not fully specified)
Obs value: 1646
//
Substance: ALDOA_+_30077139.23-P1P2_14: sgRNA targeting ALDOA, GGTCACCAGGACCGCTTCTG, SEQ ID NO: 159 (listed as DNA, chemistry not fully specified)
Obs value: 6076
//
Substance: ALDOA_+_30077139.23-P1P2_00: sgRNA targeting ALDOA, GGTCACCAGGACCCCTTCTG, SEQ ID NO: 156 (listed as DNA, chemistry not fully specified)
Obs value: 2781
//
Substance: BCR_+_23523092.23-P1P2_05: sgRNA targeting BCR, GCGCGCGGCGCCCGTCTCAG, SEQ ID NO: 128 (listed as DNA, chemistry not fully specified)
Obs value: 15537
//
Substance: SEC61A1_−_127771295.23-P1_03: sgRNA targeting SEC61A1, GGTACTGACGTGTCTCTCGG, SEQ ID NO: 86 (listed as DNA, chemistry not fully specified)
Obs value: 3563
//
Substance: non-targeting_01040: non-targeting negative control sgRNA, GTACGGCATGGCGCACTGCG, SEQ ID NO: 170 (listed as DNA, chemistry not fully specified) [reference compound]
Obs value: 0

###

Test system: K562 CRISPRi cells
Assay: Perturb-seq pooled growth measurement (sgRNA counts, growth phenotype γ, relative activity)
Assay type: cell-based, human
Settings: sequencing read counts; T0 = day two after transduction
Measure name: Perturb-seq pooled growth sgRNA counts, T0

Substance: RPS14_+_149829238.23-P1P2_13: sgRNA targeting RPS14, GAGGCCCGGGCGCGACAGTC, SEQ ID NO: 49 (listed as DNA, chemistry not fully specified)
Assay target: K562 CRISPRi cells
Obs value: 7137
--
Substance: CDC23_−_137548987.23-P1P2_02: sgRNA targeting CDC23, GACAGCTACCGGGACCATGG, SEQ ID NO: 98 (listed as DNA, chemistry not fully specified)
Assay target: K562 CRISPRi cells
Obs value: 7014
--
Substance: SEC61A1_−_127771295.23-P1_04: sgRNA targeting SEC61A1, GGCACTGAAGTGTCTCTCGG, SEQ ID NO: 87 (listed as DNA, chemistry not fully specified)
Assay target: K562 CRISPRi cells
Obs value: 5081
--
Substance: HSPA5_+_128003624.23-P1P2_06: sgRNA targeting HSPA5, GAGCCGAGTAGACGACGGTG, SEQ ID NO: 92 (listed as DNA, chemistry not fully specified)
Assay target: K562 CRISPRi cells
Obs value: 10180
--
Substance: CAD_+_27440280.23-P1P2_06: sgRNA targeting CAD, GGCTGGAGAGTAGCCGGGCG, SEQ ID NO: 104 (listed as DNA, chemistry not fully specified)
Assay target: K562 CRISPRi cells
Obs value: 6199
--
Substance: RPS18_+_33239917.23-P1P2_08: sgRNA targeting RPS18, GCTGCGATTCCGCTGGATCA, SEQ ID NO: 43 (listed as DNA, chemistry not fully specified)
Assay target: K562 CRISPRi cells
Obs value: 8535
--
Substance: MTOR_+_11322547.23-P1P2_10: sgRNA targeting MTOR, GGGCAGGGGGCCTGAAGCAG, SEQ ID NO: 150 (listed as DNA, chemistry not fully specified)
Assay target: K562 CRISPRi cells
Obs value: 7076
--
Substance: HSPA5_+_128003624.23-P1P2_04: sgRNA targeting HSPA5, GAGCCGAGAAGGCGACGGTG, SEQ ID NO: 89 (listed as DNA, chemistry not fully specified)
Assay target: K562 CRISPRi cells
Obs value: 11091
--
Substance: POLR1D_+_28196016.23-P1_08: sgRNA targeting POLR1D, GGGAAGCAGGGACCGACCGA, SEQ ID NO: 74 (listed as DNA, chemistry not fully specified)
Assay target: K562 CRISPRi cells
Obs value: 16414
--
Substance: MTOR_+_11322547.23-P1P2_06: sgRNA targeting MTOR, GGGCAGGGGGGCTGAAGCGG, SEQ ID NO: 149 (listed as DNA, chemistry not fully specified)
Assay target: K562 CRISPRi cells
Obs value: 4142
--
Substance: non-targeting_00054: non-targeting negative control sgRNA, GGGCCTGGACGAGCCTAAAA, SEQ ID NO: 163 (listed as DNA, chemistry not fully specified) [reference compound]
Assay target: K562 CRISPRi cells
Obs value: 12360
--
Substance: POLR1D_+_28196016.23-P1_07: sgRNA targeting POLR1D, GGGAAGCAAGGAGCGACCGA, SEQ ID NO: 77 (listed as DNA, chemistry not fully specified)
Assay target: K562 CRISPRi cells
Obs value: 15589
